molecular target: KAT2A (Homo sapiens, UniProt Q92830); assay: KAT2A degradation, Western Blot (Jess), NCI-H1048 cells; assay type: cell-based; design: degrader, Western blot (Jess); settings: NCI-H1048 cells, KAT2A, 24 h, Western Blot, vs DMSO; read-out: KAT2A NCI-H1048 DC50
Sequence (Q92830 whole entry): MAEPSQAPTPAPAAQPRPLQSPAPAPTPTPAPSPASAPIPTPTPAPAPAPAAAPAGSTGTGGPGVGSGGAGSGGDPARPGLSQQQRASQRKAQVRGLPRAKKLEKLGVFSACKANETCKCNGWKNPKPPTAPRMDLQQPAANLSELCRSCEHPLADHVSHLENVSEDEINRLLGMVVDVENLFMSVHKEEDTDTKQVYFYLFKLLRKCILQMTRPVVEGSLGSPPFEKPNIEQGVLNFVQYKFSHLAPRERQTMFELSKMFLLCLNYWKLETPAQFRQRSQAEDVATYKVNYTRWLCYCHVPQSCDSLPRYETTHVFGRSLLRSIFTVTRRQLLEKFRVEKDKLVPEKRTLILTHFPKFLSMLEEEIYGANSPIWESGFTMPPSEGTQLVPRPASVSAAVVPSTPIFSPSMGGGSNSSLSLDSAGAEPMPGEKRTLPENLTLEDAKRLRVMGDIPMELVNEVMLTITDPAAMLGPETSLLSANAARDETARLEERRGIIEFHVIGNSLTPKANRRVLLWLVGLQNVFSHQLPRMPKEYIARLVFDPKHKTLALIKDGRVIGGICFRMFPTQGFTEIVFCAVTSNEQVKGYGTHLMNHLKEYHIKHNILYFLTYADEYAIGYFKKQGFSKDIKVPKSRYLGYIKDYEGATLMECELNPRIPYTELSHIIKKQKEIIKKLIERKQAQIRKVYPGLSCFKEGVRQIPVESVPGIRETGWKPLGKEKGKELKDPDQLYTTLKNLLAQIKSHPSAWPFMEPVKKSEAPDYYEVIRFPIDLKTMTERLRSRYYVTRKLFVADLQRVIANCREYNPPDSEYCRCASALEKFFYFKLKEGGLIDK
measuredAttribute: DC50

Cc1cc(N2CCC3(CCN(C(=O)c4ccc([C@H]5C[C@@H](Nc6cnn(C)c(=O)c6Cl)CN(C)C5)cc4)CC3)CC2)cc(F)c1C1CCC(=O)NC1=O (stereo partly drawn); < 1 nM
CN1C[C@H](Nc2cnn(C)c(=O)c2Br)C[C@H](c2ccc(C(=O)N3CCC4(CC3)CCN(c3cccc5c3C(=O)N(C3CCC(=O)NC3=O)C5=O)CC4)cc2)C1 (stereo partly drawn); 1 to 30 nM
CN1C[C@H](Nc2cnn(C)c(=O)c2Cl)C[C@H](c2ccc(C(=O)N3CCC4(CC3)CCN(c3ccc(C5CCC(=O)NC5=O)cc3)CC4)cc2)C1 (stereo partly drawn); < 1 nM
CN1C[C@H](Nc2cnn(C)c(=O)c2Br)C[C@H](c2ccc(C(=O)N3CCC(c4ccc5c(C6CCC(=O)NC6=O)cncc5c4)CC3)cc2)C1 (stereo partly drawn); < 1 nM
CN1C[C@H](Nc2cnn(C)c(=O)c2Cl)C[C@H](c2ccc(CN3CCC4(CC3)CCN(c3ccc(C5CCC(=O)NC5=O)c(C(F)(F)F)c3)CC4)cc2)C1 (stereo partly drawn); > 30 nM
CN1C[C@H](Nc2cnn(C)c(=O)c2Cl)C[C@H](c2ccc(C(=O)N3CCC4(CC3)CCN(c3ncc(C5CCC(=O)NC5=O)cn3)CC4)cc2)C1 (stereo partly drawn); < 1 nM
Cc1cc(N2CCC3(CCN(C(=O)c4ccc([C@H]5C[C@@H](Nc6cnn(C)c(=O)c6Cl)CN(C)C5)cc4)CC3)CC2)ccc1OC1CCC(=O)NC1=O (stereo partly drawn); < 1 nM
CN1C[C@H](Nc2cnn(C)c(=O)c2Cl)C[C@H](c2ccc(COc3ccc4c(c3)C(=O)N(C3CCC(=O)NC3=O)C4=O)cc2)C1 (stereo partly drawn); 1 to 30 nM
CN1C[C@H](Nc2cnn(C)c(=O)c2Cl)C[C@H](c2ccc(CN3CCN(c4cccc(C5CCC(=O)NC5=O)c4)CC34CC4)cc2)C1 (stereo partly drawn); 1 to 30 nM
Cn1ncc(N[C@@H]2C[C@H](c3ccc(C(=O)N4CCC5(CC4)CCN(c4ccc(C6CCC(=O)NC6=O)cc4)CC5)cc3)CN(C3CC3)C2)c(Br)c1=O (stereo partly drawn); > 30 nM
CN1C[C@H](Nc2cnn(C)c(=O)c2Br)C[C@H](c2ccc(C(=O)N3CC(c4cccc(C5CCC(=O)NC5=O)c4)C3)cc2)C1 (stereo partly drawn); 1 to 30 nM
Cc1c(N[C@@H]2C[C@H](c3ccc(CN4CCN(c5cc(C6CCC(=O)NC6=O)ccn5)CC4)cc3)CN(C)C2)cnn(C)c1=O (stereo partly drawn); 1 to 30 nM

* * *

molecular target: UniProt:Q92830; assay: KAT2A degradation, Western Blot (Jess), NCI-H1048 cells; format: cell-based; parameters: degrader, Western blot (Jess); conditions: NCI-H1048 cells, KAT2A, 24 h, Western Blot, vs DMSO; read-out: KAT2A NCI-H1048 DC50
Listing: DC50 of selected molecules
measuredAttribute: DC50

COc1cc(N2CCC3(CCN(C(=O)c4ccc([C@H]5C[C@@H](Nc6cnn(C)c(=O)c6Cl)CN(C)C5)cc4)CC3)CC2)cc(F)c1C1CCC(=O)NC1=O (some centres unmarked) [Compound 281]; 1 to 30 nM
Cc1ncsc1-c1ccc(CNC(=O)[C@@H]2C[C@@H](O)CN2C(=O)[C@@H](NC(=O)CN2CCC(N3CCN(C(=O)c4ccc([C@H]5C[C@@H](Nc6cnn(C)c(=O)c6Br)CN(C)C5)cc4)CC3)CC2)C(C)(C)C)cc1 [Compound 409]; 1 to 30 nM
CN1C[C@H](Nc2cnn(C)c(=O)c2Cl)C[C@H](c2ccc(C(=O)N3CCC(c4ccc5c(C6CCC(=O)NC6=O)cncc5c4)CC3)cc2)C1 (some centres unmarked) [Compound 331]; < 1 nM
COc1cc(N2CCC3(CCN(C(=O)c4ccc([C@H]5C[C@@H](Nc6cnn(C)c(=O)c6Cl)CN(C)C5)cc4)CC3)CC2)ccc1C1CCC(=O)NC1=O (some centres unmarked) [Compound 232]; < 1 nM
Cc1c(N[C@@H]2C[C@H](c3ccc(C(=O)N4CCC(c5ccc6c(C7CCC(=O)NC7=O)cncc6c5)CC4)cc3)CN(C)C2)cnn(C)c1=O (some centres unmarked) [Compound 378]; 1 to 30 nM
CN1C[C@H](Nc2cnn(C)c(=O)c2Cl)C[C@H](c2ccc(C(=O)N3CCC4(CC3)CCN(c3ccc(N5CCC(=O)NC5=O)c(F)c3)CC4)cc2)C1 [Compound 398]; < 1 nM
Cc1c(N2CCC3(CCN(C(=O)c4ccc([C@H]5C[C@@H](Nc6cnn(C)c(=O)c6Cl)CN(C)C5)cc4)CC3)CC2)ccc(C2CCC(=O)NC2=O)c1F (some centres unmarked) [Compound 237]; < 1 nM
Cc1cc(N2CC(N3CCN(C(=O)c4ccc([C@H]5C[C@@H](Nc6cnn(C)c(=O)c6Br)CN(C)C5)cc4)CC3)C2)ccc1C1CCC(=O)NC1=O (some centres unmarked) [Compound 307]; < 1 nM
CN1C[C@H](Nc2cnn(C)c(=O)c2Br)C[C@H](c2ccc(CN3CCN(c4cncc(C5CCC(=O)NC5=O)c4)CC3)cc2)C1 (some centres unmarked) [Compound 345]; > 30 nM
CN1C[C@H](Nc2cnn(C)c(=O)c2Br)C[C@H](c2ccc(C(=O)N3CCC4(CC3)CCN(c3ccc(OC5CCC(=O)NC5=O)cn3)CC4)cc2)C1 (some centres unmarked) [Compound 366]; < 1 nM
CN1C[C@H](Nc2cnn(C)c(=O)c2Cl)C[C@H](c2ccc(CN3CCC(c4ccc5c(c4)C(=O)N(C4CCC(=O)NC4=O)C5=O)C(F)(F)C3)cc2)C1 (some centres unmarked) [Compound 392]; 1 to 30 nM

* * *

system: MOLM-13 cells; assay: Cell growth inhibition, AML cell line MOLM-13 (CyQuant, day 7); assay type: cell-based; details: Homo sapiens, 168 h; MOLM-13, day 7, CyQuant; read-out: MOLM13 GI50
Rule: measured GI50 below 4 nM gets Satisfied; anything equal to or greater than 4 nM gets Not satisfied.

Cc1cc(N2CCC3(CCN(C(=O)c4ccc([C@H]5C[C@@H](Nc6cnn(C)c(=O)c6Cl)CN(C)C5)cc4)CC3)CC2)c(F)cc1C1CCC(=O)NC1=O (stereo partly drawn); Not satisfied
CN1C[C@H](Nc2cnn(C)c(=O)c2Cl)C[C@H](c2ccc(C(=O)N3CCC4(CC3)CCN(c3ccc(C5CCC(=O)NC5=O)c(F)c3)CC4)cc2)C1 (stereo partly drawn); Satisfied
CN1C[C@H](Nc2cnn(C)c(=O)c2Br)C[C@H](c2ccc(C(=O)N3CCC(CN4CCN(c5ccc6c(c5)CN(C5CCC(=O)NC5=O)C6=O)CC4)CC3)cc2)C1 (stereo partly drawn); Satisfied
Cc1c(N[C@@H]2C[C@H](c3ccc(C(=O)N4CCC5(CC4)CCN(c4ccc(C6CCC(=O)NC6=O)c(F)c4)CC5)cc3)CN(C)C2)cnn(C)c1=O (stereo partly drawn); Satisfied
CN1C[C@H](Nc2cnn(C)c(=O)c2Cl)C[C@H](c2ccc(C(=O)N3CCC4(CC3)CCN(c3ccc(C5CCC(=O)NC5=O)nc3)CC4)cc2)C1 (stereo partly drawn); Not satisfied

* * *

molecular target: KAT2A (Homo sapiens, UniProt Q92830); experiment: KAT2A degradation, Western Blot (Jess), NCI-H1048 cells; format: cell-based; set-up: degrader, Western blot (Jess); conditions: NCI-H1048 cells, KAT2A, 24 h, Western Blot, vs DMSO; read-out: KAT2A NCI-H1048 DC50
This section presents compounds with their documented DC50 values.
measuredAttribute: DC50

Cc1cc(N2CCC3(CCN(c4ccc([C@H]5C[C@@H](Nc6cnn(C)c(=O)c6Br)CN(C)C5)cc4)CC3)CC2)ccc1C1CCC(=O)NC1=O (stereo partly drawn); < 1 nM
Cc1c(N[C@@H]2C[C@H](c3ccc(C(=O)N4CCC5(CC4)CCN(c4ccc(C6CCC(=O)NC6=O)cc4)CC5)cc3)CN(C)C2)cnn(C)c1=O (stereo partly drawn); < 1 nM
CN1C[C@H](Nc2cnn(C)c(=O)c2Br)C[C@H](c2ccc(CN3CCC(Oc4ccc(C5CCC(=O)NC5=O)cc4)CC3)cc2)C1 (stereo partly drawn); < 1 nM
CN1C[C@H](Nc2cnn(C)c(=O)c2Cl)C[C@H](c2ccc(C(=O)N3CCC4(CC3)CCN(c3cccc5c3C(=O)N(C3CCC(=O)NC3=O)C5=O)CC4)cc2)C1 (stereo partly drawn); 1 to 30 nM
CN1C[C@H](Nc2cnn(C)c(=O)c2Br)C[C@H](c2ccc(C(=O)N3CCC4(CC3)CCN(c3ccc(C5CCC(=O)NC5=O)cc3F)CC4)cc2)C1 (stereo partly drawn); < 1 nM
Cc1c(N[C@@H]2C[C@H](c3ccc(C(=O)N4CCC5(CC4)CCN(c4ccc(C6CCC(=O)NC6=O)cc4F)CC5)cc3)CN(C)C2)cnn(C)c1=O (stereo partly drawn); < 1 nM
